experiment: FaRLS diagnosis by Fa equation and Peff equation (Table S3, dose number); conditions: human, bile micelles in FaSSIF, pH 6.5
EXPERIMENTAL READOUT: fraction unbound
Reply: number alone, nothing else.

q: Requested read-out: fraction unbound. Entry: COc1ccccc1Oc1c(NS(=O)(=O)c2ccc(C(C)(C)C)cc2)nc(-c2ncccn2)nc1OCCO
a: 0.73

// next entry
q: Quick one: fraction unbound for CCc1c(Cl)c(O)c(Cl)c(O)c1C(=O)O[C@H]1[C@H](O)[C@H](OC)[C@H](OC/C2=C\C=C\C[C@H](O)/C(C)=C/[C@H](CC)[C@@H](O[C@@H]3OC(C)(C)[C@@H](OC(=O)C(C)C)[C@H](O)[C@@H]3O)/C(C)=C/C(C)=C/C[C@@H]([C@@H](C)O)OC2=O)O[C@@H]1C ?
a: 0.6

---

test: μFLUX dissolution-permeation flux experiment; conditions: donor FeSSIF pH 6.5; measured after filtration; 1/10 of clinical dose; mean ± S.D., N = 3
EXPERIMENTAL READOUT: CD,final (µg/mL)
Report only the number, with the unit µg/mL understood.

q: Recorded CD,final of COc1ccccc1Oc1c(NS(=O)(=O)c2ccc(C(C)(C)C)cc2)nc(-c2ncccn2)nc1OCCO , please.
a: 95

Could you now look at the following compound, please?
q: For the compound shown here, Cc1ccc(-c2cc(C(F)(F)F)nn2-c2ccc(S(N)(=O)=O)cc2)cc1 , give the reported CD,final.
a: 62

---

test: μFLUX dissolution-permeation flux experiment; settings: FeSSIF/FaSSIF; μFLUX dose 1/10 of the clinical dose
EXPERIMENTAL READOUT: Ratio (fed/fasted) JμFLUX
Give only the figure.

Look over these answered cases.
q: Would you kindly share the measured Ratio (fed/fasted) JμFLUX for O=C(Nc1cccc2c(=O)cc(-c3nnn[nH]3)oc12)c1ccc(OCCCCc2ccccc2)cc1 ?
a: 2.4

q: COc1ccccc1Oc1c(NS(=O)(=O)c2ccc(C(C)(C)C)cc2)nc(-c2ncccn2)nc1OCCO ?
a: 0.91

q: Another molecule to look at: CCc1c(Cl)c(O)c(Cl)c(O)c1C(=O)O[C@H]1[C@H](O)[C@H](OC)[C@H](OC/C2=C\C=C\C[C@H](O)/C(C)=C/[C@H](CC)[C@@H](O[C@@H]3OC(C)(C)[C@@H](OC(=O)C(C)C)[C@H](O)[C@@H]3O)/C(C)=C/C(C)=C/C[C@@H]([C@@H](C)O)OC2=O)O[C@@H]1C
a: 0.81

Next:
q: Fill blank: measured Ratio (fed/fasted) JμFLUX of the molecule Cc1ccc(-c2cc(C(F)(F)F)nn2-c2ccc(S(N)(=O)=O)cc2)cc1 is ____.
a: 1.7

---

test: μFLUX dissolution-permeation flux experiment; conditions: donor FaSSIF; calculated based on CD,final
The following compounds are listed with their measured Peff,μFLUX values.

q: Consider the compound shown here: Cc1ccc(-c2cc(C(F)(F)F)nn2-c2ccc(S(N)(=O)=O)cc2)cc1 [Celecoxib] What is its recorded Peff,μFLUX?
a: 18 ± 2 10^–5 cm/s

q: Note, next up: O=C(Nc1cccc2c(=O)cc(-c3nnn[nH]3)oc12)c1ccc(OCCCCc2ccccc2)cc1 [Pranlukast]
a: 0.37 ± 0.09 10^–5 cm/s

q: What do you have for COc1ccccc1Oc1c(NS(=O)(=O)c2ccc(C(C)(C)C)cc2)nc(-c2ncccn2)nc1OCCO [Bosentan] ?
a: 14 ± 2 10^–5 cm/s

More entries:
q: Record request: Peff,μFLUX value, item CCc1c(Cl)c(O)c(Cl)c(O)c1C(=O)O[C@H]1[C@H](O)[C@H](OC)[C@H](OC/C2=C\C=C\C[C@H](O)/C(C)=C/[C@H](CC)[C@@H](O[C@@H]3OC(C)(C)[C@@H](OC(=O)C(C)C)[C@H](O)[C@@H]3O)/C(C)=C/C(C)=C/C[C@@H]([C@@H](C)O)OC2=O)O[C@@H]1C [Fidaxomicin]
a: 10 ± 1 10^–5 cm/s

---

assay: μFLUX dissolution-permeation flux experiment; conditions: donor FaSSIF pH 6.5; measured after filtration; 1/10 of clinical dose; mean ± S.D., N = 3
EXPERIMENTAL READOUT: CD,final (µg/mL)
Kindly provide the numeric value in µg/mL only, without the unit symbol.

q: Need CD,final, item CCc1c(Cl)c(O)c(Cl)c(O)c1C(=O)O[C@H]1[C@H](O)[C@H](OC)[C@H](OC/C2=C\C=C\C[C@H](O)/C(C)=C/[C@H](CC)[C@@H](O[C@@H]3OC(C)(C)[C@@H](OC(=O)C(C)C)[C@H](O)[C@@H]3O)/C(C)=C/C(C)=C/C[C@@H]([C@@H](C)O)OC2=O)O[C@@H]1C
a: 72

q: Input Cc1ccc(-c2cc(C(F)(F)F)nn2-c2ccc(S(N)(=O)=O)cc2)cc1
a: 37

q: Let us now turn to O=C(Nc1cccc2c(=O)cc(-c3nnn[nH]3)oc12)c1ccc(OCCCCc2ccccc2)cc1
a: 56

Continuing:
q: Find the recorded CD,final belonging to COc1ccccc1Oc1c(NS(=O)(=O)c2ccc(C(C)(C)C)cc2)nc(-c2ncccn2)nc1OCCO and report it.
a: 49

---

Below: a set of entries, each annotated with reported solubility at 72 h.
assay: Equilibrium solubility measurement (shake-flask) in blank FaSSIF, FaSSIF, FeSSIF; type: physicochemical; conditions: blank FaSSIF, thermodynamic from solid; pH 6.5, 37°C, 72 h, mean ± S.D., N = 3; read-out: Solubility, Blank FaSSIF
Give the value in µg/mL but do not write µg/mL after it.

q: What value of solubility at 72 h has been reported for the following compound? CO[C@H]1/C=C/O[C@@]2(C)Oc3c(C)c(O)c4c(O)c(c5c(nc6cc(C)ccn65)c4c3C2=O)NC(=O)/C(C)=C\C=C\[C@H](C)[C@H](O)[C@@H](C)[C@@H](O)[C@@H](C)[C@H](OC(C)=O)[C@@H]1C
a: 1.8

q: Next: CCc1c(Cl)c(O)c(Cl)c(O)c1C(=O)O[C@H]1[C@H](O)[C@H](OC)[C@H](OC/C2=C\C=C\C[C@H](O)/C(C)=C/[C@H](CC)[C@@H](O[C@@H]3OC(C)(C)[C@@H](OC(=O)C(C)C)[C@H](O)[C@@H]3O)/C(C)=C/C(C)=C/C[C@@H]([C@@H](C)O)OC2=O)O[C@@H]1C
a: 46

// next entry
q: Fill in the blank: the reported solubility at 72 h of COc1ccccc1Oc1c(NS(=O)(=O)c2ccc(C(C)(C)C)cc2)nc(-c2ncccn2)nc1OCCO is ____.
a: 30

---

experiment: μFLUX dissolution-permeation flux experiment; details: donor FeSSIF; calculated based on CD,final
The reader will find reported Peff,μFLUX values listed item by item below.

q: Peff,μFLUX lookup needed for Cc1ccc(-c2cc(C(F)(F)F)nn2-c2ccc(S(N)(=O)=O)cc2)cc1 , thanks.
a: 18 ± 1 10^–5 cm/s

q: Continue with CCc1c(Cl)c(O)c(Cl)c(O)c1C(=O)O[C@H]1[C@H](O)[C@H](OC)[C@H](OC/C2=C\C=C\C[C@H](O)/C(C)=C/[C@H](CC)[C@@H](O[C@@H]3OC(C)(C)[C@@H](OC(=O)C(C)C)[C@H](O)[C@@H]3O)/C(C)=C/C(C)=C/C[C@@H]([C@@H](C)O)OC2=O)O[C@@H]1C
a: 2.7 ± 0.3 10^–5 cm/s

q: Try this compound too: COc1ccccc1Oc1c(NS(=O)(=O)c2ccc(C(C)(C)C)cc2)nc(-c2ncccn2)nc1OCCO
a: 6.4 ± 0.2 10^–5 cm/s

Please turn your attention to the following entry.
q: What value of measured Peff,μFLUX is listed for O=C(Nc1cccc2c(=O)cc(-c3nnn[nH]3)oc12)c1ccc(OCCCCc2ccccc2)cc1 ?
a: 0.043 ± 0.015 10^–5 cm/s

---

test: FaRLS diagnosis by Fa equation and Peff equation (Table S3, dose number); conditions: clinical dose; Sdissolv in FaSSIF
EXPERIMENTAL READOUT: Dose number, Fasted
Answer with a bare number; do not write a unit.

Please review the following examples before continuing.
q: # get_value(readout='Dose number, Fasted', item= COc1ccccc1Oc1c(NS(=O)(=O)c2ccc(C(C)(C)C)cc2)nc(-c2ncccn2)nc1OCCO )
a: 23

q: Also check O=C(Nc1cccc2c(=O)cc(-c3nnn[nH]3)oc12)c1ccc(OCCCCc2ccccc2)cc1
a: 20

q: Also check CCc1c(Cl)c(O)c(Cl)c(O)c1C(=O)O[C@H]1[C@H](O)[C@H](OC)[C@H](OC/C2=C\C=C\C[C@H](O)/C(C)=C/[C@H](CC)[C@@H](O[C@@H]3OC(C)(C)[C@@H](OC(=O)C(C)C)[C@H](O)[C@@H]3O)/C(C)=C/C(C)=C/C[C@@H]([C@@H](C)O)OC2=O)O[C@@H]1C
a: 20

Next:
q: I am curious: what Dose number, Fasted value has been reported for C#C[C@]1(O)CC[C@H]2[C@@H]3CCC4=Cc5oncc5C[C@]4(C)[C@H]3CC[C@@]21C ?
a: 43

q: Entry Cc1ccc(-c2cc(C(F)(F)F)nn2-c2ccc(S(N)(=O)=O)cc2)cc1 please
a: 67
